# TESTED_ON: NPM-ALK-BaF3 (Homo sapiens, UniProt Q9UM73)
# Construct: expressed in transfected cells; host or cells: Ba/F3 cells; the other entry of the earlier key: NPM1 (P06748, Nucleophosmin)
# Sequence (Q9UM73 with tags, fused parts or gaps): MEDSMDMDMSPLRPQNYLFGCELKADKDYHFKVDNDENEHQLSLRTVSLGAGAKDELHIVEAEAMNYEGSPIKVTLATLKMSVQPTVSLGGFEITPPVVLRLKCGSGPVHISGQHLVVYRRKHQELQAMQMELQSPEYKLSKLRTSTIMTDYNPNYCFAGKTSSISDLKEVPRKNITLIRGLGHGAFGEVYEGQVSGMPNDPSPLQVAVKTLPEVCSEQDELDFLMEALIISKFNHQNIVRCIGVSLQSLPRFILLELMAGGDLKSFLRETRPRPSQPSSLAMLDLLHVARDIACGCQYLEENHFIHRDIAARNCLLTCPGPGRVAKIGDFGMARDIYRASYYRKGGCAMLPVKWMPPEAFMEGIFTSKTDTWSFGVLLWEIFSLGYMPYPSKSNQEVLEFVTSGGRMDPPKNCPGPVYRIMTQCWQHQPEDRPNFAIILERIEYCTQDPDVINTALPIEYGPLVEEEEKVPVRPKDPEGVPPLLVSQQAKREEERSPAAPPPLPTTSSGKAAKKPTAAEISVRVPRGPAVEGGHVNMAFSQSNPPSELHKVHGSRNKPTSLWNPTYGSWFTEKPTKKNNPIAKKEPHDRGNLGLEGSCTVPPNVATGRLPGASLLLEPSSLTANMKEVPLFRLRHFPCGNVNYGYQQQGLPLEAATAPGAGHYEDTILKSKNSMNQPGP
# PROCEDURE_SUMMARY: Growth inhibition of NPM-ALK transformed BaF3 cells (MTS)
# Assay type: cell-based
# PARTICULARS: 48 hours, Table 11
Response field label: string, one of condition met (IC50 strictly below 2000 nM) or condition not met.

Example entries and their recorded answers appear below.
CS(=O)(=O)c1ccccc1CNc1nc(Nc2ccc(N3CCC(O)CC3)cc2)nc2cc[nH]c12 = condition not met
COC(=O)c1ccccc1Sc1nc(Nc2ccc(N3CCC(N4CCN(C)CC4)CC3)cc2OC)nc2cc[nH]c12 = condition not met
COc1cc(N2CCN(C)CC2)ccc1Nc1nc(NCc2ccccc2SC(C)C)c2[nH]ccc2n1 = condition met
COC(=O)c1ccccc1Nc1nc(Nc2ccc(N3CCN(C)CC3)cc2OC)nc2cc[nH]c12 = condition met
CC(C)S(=O)(=O)c1ccccc1Nc1nc(Nc2ccc(S(N)(=O)=O)cc2)nc2cc[nH]c12 = condition not met

Exam item: I wonder whether CSc1ccccc1CNc1nc(Nc2ccc(N3CCC(O)CC3)cc2)nc2cc[nH]c12 has IC50 below 2000 nM. Can you tell?
Marked response: condition not met

Exam item: I wonder whether COC(=O)c1ccccc1Nc1nc(Nc2ccc(N3CCC(N4CCCC4)CC3)cc2OC)nc2cc[nH]c12 has IC50 below 2000 nM. Can you tell?
Marked response: condition met

Exam item: I wonder whether COC(=O)c1sccc1Nc1nc(Nc2ccc(N3CCN(C)CC3)cc2OC)nc2cc[nH]c12 has IC50 below 2000 nM. Can you tell?
Marked response: condition met

---

# TESTED_ON: EML4-ALK-BaF3 (Homo sapiens, UniProt Q9UM73)
# Construct: expressed in transfected cells; host or cells: Ba/F3 cells; the other entry of the earlier key: EML4 (Q9HC35, Echinoderm microtubule-associated protein-like 4)
# Sequence (Q9UM73 1058-1620 limits assumed): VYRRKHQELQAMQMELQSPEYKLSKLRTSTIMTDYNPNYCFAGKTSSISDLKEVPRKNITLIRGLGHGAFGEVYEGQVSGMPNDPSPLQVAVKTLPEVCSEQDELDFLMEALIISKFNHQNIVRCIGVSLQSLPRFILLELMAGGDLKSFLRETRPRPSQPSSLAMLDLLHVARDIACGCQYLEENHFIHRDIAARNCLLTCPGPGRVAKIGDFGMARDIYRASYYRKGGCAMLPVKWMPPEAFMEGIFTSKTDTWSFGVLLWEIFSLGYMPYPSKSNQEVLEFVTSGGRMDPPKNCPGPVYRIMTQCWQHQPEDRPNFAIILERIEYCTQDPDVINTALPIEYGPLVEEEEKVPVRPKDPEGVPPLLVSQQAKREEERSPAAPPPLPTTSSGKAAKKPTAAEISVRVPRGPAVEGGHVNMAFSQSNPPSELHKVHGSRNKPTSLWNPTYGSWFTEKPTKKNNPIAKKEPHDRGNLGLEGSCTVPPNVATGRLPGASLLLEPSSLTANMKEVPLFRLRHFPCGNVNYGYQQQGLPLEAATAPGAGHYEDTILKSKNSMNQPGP
# PROCEDURE_SUMMARY: Growth inhibition of EML4-ALK transformed BaF3 cells (MTS)
# Format: cell-based
# PARTICULARS: EML4-ALK-BaF3 cells, 48 hours, MTS; Table 12
Kindly supply the reported IC50 values for the records listed here.
Give bare numbers, in nM.

# example entries with known answers
CSc1ccccc1Nc1nc(Nc2ccc(N3CCN(C)CC3)cc2)nc2ccn(C)c12 = 644
CN1CCN(c2ccc(Nc3nc(NCc4ccccc4S(C)(=O)=O)c4c(ccn4C)n3)cc2)CC1 = 1430

Batch of 4 compounds: report IC50 for each.
1. CC(C)Sc1ccccc1CNc1nc(Nc2ccc(N3CCC(O)CC3)cc2)nc2ccn(C)c12
2. COc1cc(N2CCC(N3CCN(C)CC3)CC2)ccc1Nc1nc(Nc2ccccc2S(=O)(=O)C(C)C)c2c(ccn2C)n1
3. COc1cc(N2CCC(N3CCN(C)CC3)CC2)ccc1Nc1nc(Nc2ccccc2S(C)(=O)=O)c2c(ccn2C)n1
4. COc1cc(N2CCN(C)CC2)ccc1Nc1nc(Nc2ccccc2SC(C)C)c2c(ccn2C)n1

Marked response:
1: 1710; 2: 330; 3: 1510; 4: 1720

---

# TESTED_ON: EML4-ALK (L1196M)-BaF3 (Homo sapiens, UniProt Q9UM73, L1196M)
# Construct: expressed in transfected cells; host or cells: Ba/F3 cells; the other entry of the earlier key: EML4 (Q9HC35, Echinoderm microtubule-associated protein-like 4)
# PROCEDURE_SUMMARY: Growth inhibition of EML4-ALK (L1196M) transformed BaF3 cells (MTS)
# Type: cell-based
# PARTICULARS: 48 hours, Table 12, read-out: L1196M (IC50 nM)
# Description: If compounds can inhibit the activity of ALK kinase or the activity of ALK signaling pathway, they can inhibit the growth of ALK transformed Ba/F3 cells. […] The broad-spectrum toxicity of compounds can be evaluated by determining the effect of the compounds on the growth of wild type BaF3 cells. […] 4) Calculation of IC50 value: the semi inhibitory concentration of the compound acting on the cells was calculated using GradPad Prism 5 software according to the cell inhibitory rate measured.
Kindly supply the reported IC50 values for the records listed here.

# example entries with known answers
COc1cc(C2CCN(C)CC2)c(C)cc1Nc1nc(Nc2ccccc2S(=O)(=O)C(C)C)c2c(ccn2C)n1 = ~2880 nM
CCOc1cc(C(=O)N2CCC(N3CCN(C)CC3)CC2)ccc1Nc1nc(Nc2ccccc2SC(C)C)c2c(ccn2C)n1 = ~2780 nM
CSc1ccccc1CNc1nc(Nc2ccc(N3CCC(O)CC3)cc2)nc2ccn(C)c12 = > 10000 nM
COc1cc(N2CCC(N3CCN(C)CC3)CC2)ccc1Nc1nc(Nc2ccccc2S(C)(=O)=O)c2c(ccn2C)n1 = ~3510 nM
COC(=O)c1ccccc1Nc1nc(Nc2ccc(C(=O)N3CCC(N4CCN(C)CC4)CC3)cc2OC)nc2ccn(C)c12 = 3950 nM
COc1cc(N2CCC(N3CCN(C)CC3)CC2)ccc1Nc1nc(NCc2ccccc2S(=O)(=O)C(C)C)c2c(ccn2C)n1 = 1420 nM
CC(C)S(=O)(=O)c1ccccc1CNc1nc(Nc2ccc(N3CCC(O)CC3)cc2)nc2ccn(C)c12 = > 10000 nM

Okay, now this compound:
Exam item: Could you please provide reported IC50 for CCOc1cc(N2CCC(O)CC2)ccc1Nc1nc(Nc2ccccc2S(C)(=O)=O)c2c(ccn2C)n1 ? Thanks!
Marked response: > 10000 nM
